# System: K24384-001-R-PDC complex spheroid growth
# Test Description: Anticancer human tumor K24384-001-R-PDC patient-derived pancreatic adenocarcinoma cell line growth inhibition [AhR]
# Assay Setup: curve of first compound; second compound 0.1 µM
pIC50: −log10 of the molar value.
Experimental Endpoint: pIC50

// worked examples, pIC50 included
CC(C)CC(NC(=O)C(Cc1ccccc1)NC(=O)c1cnccn1)B(O)O (centres undefined) + CC(CO)NC(=O)c1cc(-c2ccc(Cl)cc2)nn(-c2cnn(C)c2)c1=O = 8.18
NS(=O)(=O)OCC1CC(n2ccc3c(NC4CCc5ccccc54)ncnc32)CC1O (centres undefined) + Cc1ccccc1N=Nc1ccc(NC(=O)c2ccnn2C)c(C)c1 = 6.03
CCc1c2c(nc3ccc(O)cc13)-c1cc3c(c(=O)n1C2)COC(=O)[C@]3(O)CC + CC(CO)NC(=O)c1cc(-c2ccc(Cl)cc2)nn(-c2cnn(C)c2)c1=O = 8.03

A. COc1ccc([C@@H](O)c2cc(-c3ncnc4cc(N5CCOCC5)ccc34)c(F)cc2Cl)nn1 + Cc1ccccc1N=Nc1ccc(NC(=O)c2ccnn2C)c(C)c1
B. O=C(C=Cn1cnc(-c2cc(C(F)(F)F)cc(C(F)(F)F)c2)n1)NNc1cnccn1 + CC(CO)NC(=O)c1cc(-c2ccc(Cl)cc2)nn(-c2cnn(C)c2)c1=O
Query string: Parameter metric = pIC50. Return the lower-valued option from A and B . Indicate which entry you chose by stating its label.
Result string: A

P. COc1cccc2c1C(=O)c1c(O)c3c(c(O)c1C2=O)CC(O)(C(=O)CO)CC3OC1CC(N)C(O)C(C)O1 (centres undefined) + CC(CO)NC(=O)c1cc(-c2ccc(Cl)cc2)nn(-c2cnn(C)c2)c1=O
Q. O=C(C=Cc1cccc(S(=O)(=O)Nc2ccccc2)c1)NO + CC(CO)NC(=O)c1cc(-c2ccc(Cl)cc2)nn(-c2cnn(C)c2)c1=O
Query string: Parameter metric = pIC50. Return the lower-valued option from P and Q . Indicate which entry you chose by stating its label.
Result string: Q

P. Nc1ccn(C2OC(CO)C(O)C2(F)F)c(=O)n1 (centres undefined) + CC(CO)NC(=O)c1cc(-c2ccc(Cl)cc2)nn(-c2cnn(C)c2)c1=O
Q. COc1cc(Nc2ncc3c(n2)-c2ccc(Cl)cc2C(c2c(F)cccc2OC)=NC3)ccc1C(=O)O + Cc1cncc(-c2nc(NCCc3c[nH]c4ccccc34)c3ncn(C(C)C)c3n2)c1
Query string: Parameter metric = pIC50. Return the lower-valued option from P and Q . Indicate which entry you chose by stating its label.
Result string: Q
(Q: 6.03, P: 6.24)

---

Listing of entries alongside the reported viability, T/C.
# Test system: K24384-001-R-PDC complex spheroid growth
# Test Description: Anticancer human tumor K24384-001-R-PDC cell line growth inhibition [AhR];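 as to viability, T/C: percent of DMSO vehicle-treated spheroid viability set as 100%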
# Assay Setup: second compound 3.16 µM; first compound 0.0316 µM; stronger effect = lower value
Answer with a number only, understood to be in %.

CC1COCCN1c1cc(C2(S(C)(=N)=O)CC2)nc(-c2ccnc3[nH]ccc23)n1 (stereo not drawn) + Cc1cncc(-c2nc(NCCc3c[nH]c4ccccc34)c3ncn(C(C)C)c3n2)c1 = 80.6
Nc1ccn(C2OC(CO)C(O)C2(F)F)c(=O)n1 (stereo not drawn) + Cc1ccccc1N=Nc1ccc(NC(=O)c2ccnn2C)c(C)c1 = 58

Now for another entry.
Query string: Look up and report measured viability, T/C for this entry: CC1COCCN1c1cc(-c2ccnn2C)c2ccnc(-c3ccn[nH]3)c2n1 (stereo not drawn) + CC(CO)NC(=O)c1cc(-c2ccc(Cl)cc2)nn(-c2cnn(C)c2)c1=O
Result string: 64.2
